Tested on: pigweed
Assay: Test B pre/postemergence pigweed
Assay type: in vivo, Amaranthus retroflexus
Settings: Rate 500 g/ha, Postemergence; scale 0 to 10
# Redroot pigweed plant response rating annotations

May I ask what Redroot pigweed plant response rating has been recorded for CC(C)N(C(=O)n1oc(=O)n(C(C)(C)C)c1=O)c1ccccc1 ?
3

I have this compound here, CCN(C(=O)n1oc(=O)n(N(C)c2ccccc2)c1=O)C1CCCCC1 , and I need its recorded Redroot pigweed plant response rating.
0

Which Redroot pigweed plant response rating value is on record for COc1ccccc1Cn1c(=O)on(C(=O)N(c2ccc(F)cc2)C(C)C)c1=O ?
6

What does the data say about its Redroot pigweed plant response rating? Entry: CC(C)N(C(=O)n1oc(=O)n(C2CCCC(C(F)(F)F)C2)c1=O)c1ccc(F)cc1 (stereo not shown)
7

Entry CC(C)N(C(=O)n1oc(=O)n(N(C)c2ccccc2)c1=O)c1ccc(F)cc1 : reported Redroot pigweed plant response rating = ?
3

More entries:
// query Redroot pigweed plant response rating value for entry Cc1ccc(N(C(=O)n2oc(=O)n(C(C)C)c2=O)C(C)C)cc1
2

I would be grateful if you could share the reported Redroot pigweed plant response rating for C=CCn1c(=O)on(C(=O)N(c2ccc(F)cc2)C(C)C)c1=O .
8

---

System: sugar beet
Experiment: Test B pre/postemergence sugar beet
Assay type: in vivo, Beta vulgaris
Conditions: Preemergence, Rate 500 g/ha; scale of 0 to 10 where 0 is no effect and 10 is complete control
Description: […] At the same time, these crop and weed species were also treated with postemergence applications of test chemicals formulated in the same manner. […] Treated plants and controls were maintained in a greenhouse for twelve to sixteen days, after which all species were compared to controls and visually evaluated. […]
measured quantity: Plant response rating, Sugarbeets
Answer field: number only, no words.

Consider the reported Plant response rating, Sugarbeets for these molecules:
So what's the measured Plant response rating, Sugarbeets for this one? Cc1nc(C)c(-n2c(=O)on(C(=O)N(c3ccc(Cl)cc3)C(C)C)c2=O)s1 [Compound 196]
0

Bench note: what Plant response rating, Sugarbeets did CCn1ncc(Cn2c(=O)on(C(=O)N(c3ccccc3)C(C)C)c2=O)c1Cl [Compound 683] show?
0

Please report the recorded Plant response rating, Sugarbeets for C=CCn1c(=O)on(C(=O)N(c2c(C)cccc2C)C(C)COC)c1=O (centres unmarked) [Compound 600] .
0

Bench note: what Plant response rating, Sugarbeets did CCC=CCn1c(=O)on(C(=O)N(c2ccc(F)cc2)C(C)C)c1=O [Compound 286] show?
4

New cases:
Which Plant response rating, Sugarbeets is listed for CCN(C(=O)n1oc(=O)n(N(C)C)c1=O)C1CCCCC1 [Compound 274] ?
0

---

Below: a set of entries, each annotated with reported Velvetleaf plant response rating.
Tested on: velvetleaf
Assay: Test B pre/postemergence velvetleaf
Assay type: in vivo, Abutilon theophrasti
Conditions: Preemergence, Rate 500 g/ha; scale 0 to 10 (0 no effect, 10 complete control)
Give the value as a plain number.

Form field - read-out: Velvetleaf plant response rating; system: velvetleaf; submitted item: CC(C)N(C(=O)n1oc(=O)n(C(C)C)c1=O)c1ccc(F)cc1F
10

Requested read-out Velvetleaf plant response rating, target or system velvetleaf, entry CC(C)N(C(=O)n1oc(=O)n(C)c1=O)c1ccc(Cl)cc1
10

Test system velvetleaf; read-out Velvetleaf plant response rating; what value for CC(C)N(C(=O)n1oc(=O)n(CC2CO2)c1=O)c1ccc(F)cc1 (stereo not drawn) ?
2

Record lookup: for velvetleaf, what Velvetleaf plant response rating belongs to C=CCn1c(=O)on(C(=O)N(c2ccc(F)cc2)C(C)C)c1=O ?
8

# value lookup — system velvetleaf, readout Velvetleaf plant response rating, item CCN(C(=O)n1oc(=O)n(N(C)c2ccccc2)c1=O)C1CCCCC1
0

Now turn to the next compound.
Entry CC(C)N(C(=O)n1oc(=O)n(C(C)c2ccccc2)c1=O)c1ccc(Cl)cc1 (stereo not drawn) , system velvetleaf: what Velvetleaf plant response rating was measured?
2
